Measured pIC50 of individual entries
System Name: PD-1/PD-L1 interaction (PDL1-6×His protein, PD1-Fc-Avi-Biotin protein) (Homo sapiens)
Sequence (Q9NZQ7 19-238 limits assumed): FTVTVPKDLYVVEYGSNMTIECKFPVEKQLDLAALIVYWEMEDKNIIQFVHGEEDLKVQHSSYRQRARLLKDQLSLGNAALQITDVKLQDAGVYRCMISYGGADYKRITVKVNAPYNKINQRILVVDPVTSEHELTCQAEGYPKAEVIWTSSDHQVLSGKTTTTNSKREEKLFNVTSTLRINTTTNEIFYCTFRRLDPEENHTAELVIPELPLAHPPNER
Method Summary: PDL1/PD1 Binding Assay
Stated Conditions: Table C; 0.3 nM PDL1, 2.5 nM PD1; read-out: PD-1/PD-L1 PPI IC50
pIC50: −log10 of the molar value.

# example entries with known answers
INSERT INTO assay_data (molecule, measurement) VALUES
  ('O=C(O)CNC1CCc2cc(-c3cccc(-c4cccc(-c5ccc6c(c5)CCC6NCC(=O)O)c4Cl)c3Cl)ccc21 (centres unmarked)', '≥ 8.00'),
  ('O=C1CC[C@@H](CNC2Cc3ccc(-c4cccc(-c5cccc(-c6ccc7c(c6)CC(NC[C@@H]6CCC(=O)N6)C7)c5Cl)c4Cl)cc3C2)N1 (some centres unmarked)', '≥ 8.00'),
  ('Clc1c(-c2ccc3c(c2)CCNC3)cccc1-c1cccc(-c2ccc3c(c2)CCN(c2ncccn2)C3)c1Cl', '5.00 to 6.00'),
  ('CC1(C)CN(C[C@@H](O)CC(=O)O)Cc2ccc(-c3cccc(-c4cccc(-c5ccc6c(c5)C(C)(C)CN(C[C@@H](O)CC(=O)O)C6)c4Cl)c3Cl)cc21', '6.00 to 7.00'),
  ('CC(=O)NCCNC1CCc2cc(-c3cccc(-c4cccc(-c5ccc6c(c5)CCC6NCCNC(C)=O)c4Cl)c3Cl)ccc21 (centres unmarked)', '7.00 to 8.00');

**Query** Please report the recorded pIC50 for `O=C(O)C[C@H](O)CN1CCOc2nc(-c3cccc(-c4cccc(-c5ccc6c(n5)OCCN(C[C@@H](O)CC(=O)O)C6)c4Cl)c3Cl)ccc2C1` .
**Result** 5.00 to 6.00

**Query** Need pIC50, item `COc1cc(-c2cccc(-c3cccc(-c4cc5c(c(OC)c4)CNCC5)c3Cl)c2Cl)cc2c1CNCC2`
**Result** 7.00 to 8.00

**Query** Which pIC50 reading was recorded for the molecule `Clc1c(-c2ccc3c(c2)CNC3)cccc1-c1cccc(-c2ccc3c(c2)CNC3)c1Cl` ?
**Result** 7.00 to 8.00

**Query** Please report the recorded pIC50 for `Clc1c(-c2cc3c(cn2)CNCC3)cccc1-c1cccc(-c2cc3c(cn2)CNCC3)c1Cl` .
**Result** 7.00 to 8.00

**Query** Which pIC50 value belongs to O=C(O)CN1CCC12CCc1cc(-c3cccc(-c4cccc(-c5ccc6c(c5)CCC5(CCN5CC(=O)O)C6)c4Cl)c3Cl)ccc1C2 (centres unmarked) ?
**Result** 6.00 to 7.00

**Query** Using the record for Clc1c(-c2ccc3c(c2)CC(N2CCOCC2)C3)cccc1-c1cccc(-c2ccc3c(c2)CC(N2CCOCC2)C3)c1Cl (centres unmarked) , report its pIC50.
**Result** 6.00 to 7.00

**Query** Look at this molecule and give its reported pIC50. `Clc1c(-c2ccc3c(c2)COC32CNC2)cccc1-c1cccc(-c2ccc3c(c2)COC32CNC2)c1Cl`
**Result** 5.00 to 6.00
